Field: Percent Effect. Provide a value for each of the compounds that follow.
experimental-system: AMP-activated protein kinase, AMPK (Homo sapiens) (UniProt P54646+O43741+P54619+Q9UGJ0+Q9Y478+Q13131+Q9UGI9)
assay-protocol: AMP-dependent Kinase enzyme assay. An in vitro enzyme assay that detects ADP turnover that is directly proportional to AMPK activity. This uses naive AMPK that is activated during the assay with MK-8722
Type: functional
Design: scale not given: direction of the effect not stated beside the values
condition-description: 30 µM
Field: numeric (%). Do not append units.

What value of measured Percent Effect is listed for `CCN1C(=O)C2(CCOCC2)c2cc(NC(=O)c3ccco3)ccc21` ?
-1.2

What value of measured Percent Effect is listed for Clc1ccc(CN2CCCC(Cn3cncn3)C2)c2ncccc12 (configuration not stated) ?
-0.804

What value of measured Percent Effect is listed for CCc1n[nH]c(C2CN(C(=O)c3csnn3)CCO2)n1 (configuration not stated) ?
0.934

What value of measured Percent Effect is listed for `c1cn(Cc2nnc(C3CCN(c4nccs4)CC3)n2C2CC2)cn1` ?
0.541

What value of measured Percent Effect is listed for `O=C(c1ccc2[nH]ccc2c1)N1CCn2cnc(COCC3CC3)c2C1` ?
5.2

What value of measured Percent Effect is listed for `O=C(NCCCN1CCCC1)c1n[nH]c(=O)c2ccccc12` ?
0.621

What value of measured Percent Effect is listed for `Cc1cc(-c2cnc(NCc3cccnc3)nc2C(C)C)on1` ?
40.6

What value of measured Percent Effect is listed for `O=S(=O)(c1ccccc1)N1CCCN(CCCn2ccnc2)CC1` ?
-5.54

What value of measured Percent Effect is listed for `CCc1nnc2n1CCN(Cc1ccc3c(c1)OCCO3)C2` ?
-5.31

What value of measured Percent Effect is listed for O=C(Cc1ccsc1)NCC1OCCc2cn(CC3CC3)nc21 (configuration not stated) ?
4.36

What value of measured Percent Effect is listed for CC(C)c1nc(CN2CCN(C(C)c3nc(C4CC4)no3)CC2)no1 (configuration not stated) ?
4.42

What value of measured Percent Effect is listed for COc1ccc(C(O)CNC(=O)Nc2cc(C)nn2C)cc1 (configuration not stated) ?
3.77

----------
experimental-system: Protein translocase subunit SecA (Escherichia coli (strain K12))
assay-protocol: Assay to Identify E. coli SecA ATPase Inhibitors
Assay type: functional
Design: scale not given: direction of the effect not stated beside the values
condition-description: 30 µM
Entries with a potency or affinity are not part of this list.
Field: Percent Effect. Provide a value for each of the molecules that follow.
Field: numeric (%). Do not append units.

What value of measured Percent Effect is listed for `O=C([C@H]1COC[C@H]2CN(C3CCCC3)C[C@H]21)N1CCCCO1` ?
-1.86

What value of measured Percent Effect is listed for CCOCC1CN(C(=O)c2ccncc2)Cc2nn(C)cc21 (stereo unspecified) ?
2.34

What value of measured Percent Effect is listed for `Cn1cccc1C(=O)N[C@@H]1CN(CC2CC2)[C@@H]2COC[C@@H]21` ?
-2.02

What value of measured Percent Effect is listed for CC1=NN(c2ccc(C(=O)N3CCCC(n4ccnc4)C3)cc2)CC1 (stereo unspecified) ?
-5.1

What value of measured Percent Effect is listed for `CNC(=O)CCNC(=O)c1cccc(Cn2nc(C)cc2C)c1` ?
-1.98

What value of measured Percent Effect is listed for COC(=O)C(c1cc(F)ccc1F)N(C)C(=O)c1cccnc1O (stereo unspecified) ?
-4.02

What value of measured Percent Effect is listed for `Cc1nc(CN2CCn3cc(CNC(=O)C4CCC4)nc3C2)cs1` ?
-1.94

What value of measured Percent Effect is listed for `Cn1nc2c(cc1=O)CN(Cc1coc(-c3cccs3)n1)CC2` ?
0.447

What value of measured Percent Effect is listed for `COCCN1C(=O)C[C@H]2[C@H]1CCN2Cc1cccc(C#N)c1` ?
-2.88

What value of measured Percent Effect is listed for `CNS(=O)(=O)Cc1ccc(CNc2cncc(-n3cccn3)n2)cc1` ?
-1.63

What value of measured Percent Effect is listed for CN1CCCc2cc(NC(=O)N3CCOC(C(N)=O)C3)ccc21 (stereo unspecified) ?
4.12
